assay: VP16 counterscreen qHTS for inhibitors of ROR gamma transcriptional activity; conditions: Drosophila S2 Gal4-VP16 UAS-luciferase, luminescence, 20 h; series mostly up to 53.6 µM;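 further: Gal4-VP16 expression switched on by copper sulfate through the metallothionein promoter; nearly all actives have a fitted effect of over 50% in size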; further: potency means the concentration at half of the fitted maximal effect
In all, about 310,000 compounds went through this assay and about 11,000 (3.5%) were called active. About 8% were inconclusive and are not listed. The full list was thinned out, with actives kept by preference.
metric_name: Potency

[[record]]
compound = "BrC1C(Br)C(Br)C(Br)C(Br)C1Br (centres undefined)"
value_observed = "7.94 µM (active)"

[[record]]
compound = "COc1cc(-n2c(=S)[nH]c3ccc(C)cc3c2=O)c(Cl)cc1Cl"
value_observed = "5.62 µM (active)"

[[record]]
compound = "CN1C2CC3CC1C(O3)C2O (centres undefined)"
value_observed = "inactive"

[[record]]
compound = "Cc1cccc([C@H](C)c2cnc[nH]2)c1C"
value_observed = "inactive"

[[record]]
compound = "Clc1ccccc1"
value_observed = "inactive"

[[record]]
compound = "CCCCC/C=C\\C/C=C\\C/C=C\\C/C=C\\CCCCCC(=O)NCCO"
value_observed = "inactive"

[[record]]
compound = "CCCCn1c(=O)c(C(=O)Nc2ccccc2Cl)c(O)c2ccccc21"
value_observed = "inactive"

[[record]]
compound = "COC(=O)N1C(c2ccccc2)C1c1ccccc1 (centres undefined)"
value_observed = "inactive"

[[record]]
compound = "Cc1cccc(N2C(=O)NC(=O)/C(=C\\c3cnn(-c4ccccc4)c3)C2=O)c1"
value_observed = "12.6 µM (active)"

[[record]]
compound = "COc1ccc(C2Oc3c(I)c(OC)cc(OC)c3CC2O)cc1OC (centres undefined)"
value_observed = "inactive"

[[record]]
compound = "c1ccc2sc(SNC3CCCCC3)nc2c1"
value_observed = "inactive"

[[record]]
compound = "CCCCCCCCc1[se]c2ccccc2c1Br"
value_observed = "inactive"

[[record]]
compound = "O=C1NC(=O)N(c2ccccc2)C(=O)/C1=C/c1ccc([N+](=O)[O-])s1"
value_observed = "inactive"

[[record]]
compound = "C[C@@H]1C[C@@H]2O[C@H]2/C=C\\C=C\\C(=O)Cc2c(Cl)c(O)cc(O)c2C(=O)O1"
value_observed = "12.6 µM (active)"

[[record]]
compound = "Fc1ccc(C(OCCN2CCN(C/C=C\\c3ccccc3)CC2)c2ccc(F)cc2)cc1"
value_observed = "15.8 µM (active)"

[[record]]
compound = "CCCCC(=O)N/N=C/c1c(O)n(-c2ccccc2)c(=O)[nH]c1=O"
value_observed = "inactive"

[[record]]
compound = "CC(=O)c1c(O)c(C)c(O)c(Cc2c(O)c3c(c(C(=O)/C=C\\c4ccccc4)c2O)OC(C)(C)C=C3)c1O"
value_observed = "inactive"

[[record]]
compound = "CC(=O)[O][Sn]([c]1ccccc1)([c]1ccccc1)[c]1ccccc1"
value_observed = "3.55 µM (active)"

[[record]]
compound = "CC(C)(O)c1[se]c2ccccc2c1I"
value_observed = "inactive"

